tested on: MALME-3M melanoma; assay: NCI-60 one-dose screen, 48 h; conditions: 10 µM unless noted
This is part of a sample that, as a whole, favours compounds with a hit. Of some 83,000 tested, about 20% had one in any assay. Active and inactive are the calls of the source. How the source made its calls: active means growth percent below 10; inactive means the rest.
Possible outcomes: 1 for active, 0 for inactive

COc1cc(C(=O)c2c(-c3ccccc3)oc3c(OC)cccc23)cc(OC)c1OC	0
CN1CCN(C(=S)SCCCCOc2cc(=O)oc3ccccc23)CC1	0
CC/C=C\C[C@H](O)C/C=C1/C(=O)C=C[C@@H]1C/C=C\CCCC(=O)O	0
CCOc1c(OC)cc2c(c1O)C(=O)N[C@@H]1[C@@H](O)[C@@H](O)[C@H](O)C[C@@H]21	0
Cc1ccc(C=C2C(=O)NC(=O)NC2=O)cc1	0
Cc1[nH]c(C2CC(c3ccc(C(F)(F)F)c(F)c3)=NN2c2ccccc2)c(C)c1C(=O)NCC(F)(F)F (stereo unspecified)	0
COc1ccccc1C(=O)Nc1cccc(NC(=O)c2ccoc2C)c1	0
CNC1=C([N+](=O)[O-])C(c2ccc(OC)cc2)C(C#N)=C(c2cccs2)O1 (stereo unspecified)	0
CCN(CC)c1ccc(/C=N/NC(=O)Cc2ccc(Nc3ccnc(C(F)(F)F)c3)cc2)c(O)c1	0
CC1C=CC(OC(=O)C(C)(O)CCC(O)(C(=O)OC2CC(O)C(C(C)C)CC2(C)O)C(C)C)(C(C)C)CC1 (stereo unspecified)	1
O=[N+]([O-])c1cc(NS(=O)(=O)c2ccccc2)ccc1NS(=O)(=O)c1ccccc1	0
COc1ccc(C2=CN3CC=CC3CC2=O)cc1 (stereo unspecified)	0
O=C(O)COc1ccc(Cl)c(Cl)c1	0
CC(=O)O[C@H]1C[C@@H]2C(C)(C)C(=O)CC[C@@]2(C)c2ccc(C(C)C)cc21	0
Fc1cccc(-c2ccc3c(c2)C2(CCNCC2)CN3)c1	0
COc1cc(OC)c(/C=C/C(=O)c2c(O)cc(OC)c(C3CCN(C)CC3)c2OC)c(OC)c1	1
NC1(CO)COC(c2ccccc2)OC1 (stereo unspecified)	0
O=C(C1=Cc2cc3ccccc3n2Cc2cnnn21)c1ccc(O)cc1	0
CCNC(=O)Oc1ccc(/C(=C(/C)Cc2ccc(OC)cc2)c2ccc(OCCN3CCCCC3)cc2)cc1	0
COc1cc(NC(=O)c2cncnc2Nc2ccc3c(ccn3Cc3ccccn3)c2)cc(OC)c1	0
O=C(Nc1ncccc1OCc1ccccc1)NC1CCCCCC1	0

----------
test system: 786-0 renal; test: NCI-60 one-dose screen, 48 h (100 = growth as untreated, 0 = no growth, -100 = all killed); settings: 10 µM unless noted
This is part of a sample that, as a whole, favours compounds with a hit. Of some 83,000 tested, about 20% had one in any assay.
Quantity kind: growth (%)

CO[C@H]1CC(=O)n2c3ccccc3c3c4c(c5c6ccccc6n1c5c32)C(=O)NC4=O	97.4
CN(C)CCCC1(c2ccc(F)cc2)OCc2cc(-c3cc4ccccc4s3)ccc21 (centres undefined)	57.8
CN1C(=O)/C(=C2\SC(=Nc3ccccc3)N(Nc3ccccc3)C2=O)c2ccccc21	107
c1ccc(CCNc2c3ccccc3nc3ccccc23)cc1	38.1
Nc1nc2c(c3ncccc13)C(c1cccc(Cl)c1)Cc1ncccc1-2 (centres undefined)	22.6
C=C(C)[C@@H]1CC[C@]2(COC(C)=O)CC[C@]3(C)[C@H](CC[C@@H]4[C@@]5(C)CCCN(C(C)=O)C(C)(C)[C@@H]5CC[C@]43C)[C@@H]12	8.13
CCCCCCCC/C=C\CCCCCCCCOc1ccc(CC(=O)NCC[N+]2(C)CCOCC2)cc1	67.7
Cc1cc(Nc2ccc(C(=O)N3CCCC3)cc2)nc(NCCCNc2ccnc3cc(Cl)ccc23)n1	87.9
C=CC(=O)Nc1ccc(Nc2nccc(-c3ccc(N4CCCC4)c(C#N)c3)n2)cc1	-67.4

----------
test system: UACC-257 melanoma; assay: NCI-60 one-dose screen, 48 h; details: 10 µM unless noted
Compounds without any hit were thinned out: in the full panel of roughly 83,000, 20% have a hit. Activity calls are given as the source filed them. How the source made its calls: active means growth percent below 10; inactive means the rest.
Possible outcomes: yes = active, no = inactive

COC(=O)CCC/C=C\C[C@H]1C=CC(=O)/C1=C/C[C@@H](O)C/C=C\CC(F)(F)F	yes
O=C(NC(Cc1nnc2n(Cc3ccccc3)c(=O)c3c4c(sc3n12)CCCC4)c1ccccc1)c1ccccc1 (centres undefined)	no
CC(C)CCN(CCC(C)C)CC(O)c1cc2c(c3ccccc13)CCCC2 (centres undefined)	no
COc1ccc(-c2nc(/C=C3\C(=O)N(C)c4ccccc43)c3ccccn23)cc1	no
N#CSc1c[nH]c2cccc(/C=C/C(=O)/C=C(O)/C=C/c3cccc4[nH]cc(SC#N)c34)c12	yes
c1ccc2c(c1)CCCc1nnc3nc4ccccc4n3c1-2	no
COc1ccc(C2CC(c3cc(OC)c(OC)c(OC)c3)=NO2)cc1OCCCCOc1cc2c(cc1OC)C(=O)N1CCC[C@H]1C=N2 (some centres undefined)	no
O=[N+]([O-])c1ccc(-c2cn3nc(-c4c[nH]c5ccccc45)sc3n2)cc1	no
COc1ccc(CCN2C(=O)/C(=C/c3ccc(C4Oc5ccccc5C5CC(c6ccccc6)=NN54)cc3)SC2=S)cc1 (centres undefined)	no

----------
Tested on: A549/ATCC NSCLC
Test: NCI-60 one-dose screen, 48 h
Conditions: 10 µM unless noted
Experimental: Growth inhibition of the A549/ATCC human Non-Small Cell Lung tumor cell line is measured as a screen for anti-cancer activity. Cells are grown in 96 well plates and exposed to the test compound for 48 hours. Compounds are tested at a single concentration, which is 10^-5 M for most compounds. The reported endpoint is percent growth (GI% or GIPRCNT), where numbers from 0 - 100% represent growth inhibition, and numbers from -100% - 0 represent cell death. […]
This is part of a sample that, as a whole, favours compounds with a hit. Of some 83,000 tested, about 20% had one in any assay. Active and inactive are the calls of the source. How the source made its calls: active means growth percent below 10; inactive means the rest.
Possible outcomes: active, inactive

CC1=C(CCC(C)NCc2ccc(OCCCN3CCCCC3)cc2)C(C)(C)CCC1 (centres undefined)	active
CC(=O)OC(c1ccccc1)C1CCOC1=O (centres undefined)	inactive
Cc1ccc(/C=C/C(=O)Nc2ncc(Cc3ccc(F)cc3)s2)o1	inactive
CN(Cc1cnc2nc(N)nc(N)c2n1)c1ccc(C(=O)NC(CCC(=O)O)C(=O)O)cc1Br (centres undefined)	inactive
O=C(CSc1nc(-c2ccccc2)cc(=O)[nH]1)Nc1nc(-c2ccccc2)cs1	inactive
CCCCNc1cc(-c2cn[nH]c2-c2cc(C)cc(OC)c2)nc(-c2cccnc2)n1	inactive
C=C1C(=O)O[C@H]2[C@H]1CC/C(COC(=O)/C=C\C(=O)NCc1ccc(Cn3c(=O)sn(CCCCC)c3=O)cc1)=C\CC[C@@]1(C)O[C@@H]21	inactive
O=C(Nc1ncccc1OCc1ccccc1)NC1CCCCCC1	inactive
Cc1ccc(S(=O)(=O)OCCCOS(=O)(=O)c2ccc(C)cc2)cc1	inactive
N=c1c(S(=O)(=O)c2ccccc2)cc2c(=O)n3ccccc3nc2n1CC1CCCO1 (centres undefined)	inactive
C=C1C(=O)O[C@H]2[C@H]1CC/C(COC(=O)CSCSCC(=O)OC/C1=C/CC[C@@]3(C)O[C@H]3[C@H]3OC(=O)C(=C)[C@@H]3CC1)=C\CC[C@@]1(C)O[C@@H]21	inactive
COC(=O)c1cc(Br)ccc1O	inactive
S=C(c1ccc2c(c1)OCO2)N1CCN(c2cccc(Cl)c2)CC1	inactive
Cc1ccc2nc(-c3ccc(C(=O)NNC(=S)Nc4ccccc4)cc3)[nH]c2c1	inactive
CC(C)=CCNc1ncnc2c1ncn2C1OC(CO)C(O)C1O (centres undefined)	active
C[C@]1(O)CC(=O)[C@]2(O)C3=C(C=C[C@]2(O)C1)C(=O)c1c(O)cccc1C3=O	inactive
NC(N)=NS(=O)(=O)c1ccc(NC2=C(I)C(=O)c3ncccc3C2=O)cc1	inactive
CCN1CCN(C(=O)[C@]23CC[C@@H](C)[C@H](C)[C@@H]2C2=CC[C@@H]4[C@@]5(C)C/C(=C/c6cccnc6)C(=O)C(C)(C)[C@@H]5CC[C@@]4(C)[C@]2(C)CC3)CC1	inactive
O=C(Cn1nnc2ccccc21)N/N=C/c1c[nH]c2ccccc12	inactive

----------
system: ACHN renal; experiment: NCI-60 one-dose screen, 48 h; settings: 10 µM unless noted
About 83,000 compounds went through this panel and 20% of them were active in at least one assay; those are over-represented in the sample as a whole. Activity calls are given as the source filed them. The calls were made as follows: active = growth percent below 10; inactive = the rest.
Possible outcomes: True (active), False (inactive)

COc1ccc(Cn2cc3c(c2-c2ccccc2)CCc2cnoc2-3)cc1	False
NC1=Nc2cc(OCCCCN3Cc4ccccc4C3)c(OCC3CC3)cc2C12CCCC2	False
CCN(CC)CCCN1C(=O)c2c(c(C)c3c(oc4ccc(OC)cc43)c2C)C1=O	False
CSc1nn2c(-c3ccc4ccccc4c3)ccnc2c1C#N	False
Cc1ccc(/C=C/C(=O)c2ccc(-n3cc(CN4CCN(c5cc6c(cc5F)c(=O)c(C(=O)O)cn6C5CC5)CC4)nn3)cc2)cc1	False
N#CC1=C(N)Oc2ccc3ccccc3c2C1c1ccc([N+](=O)[O-])cc1 (stereo not drawn)	False
C=C1C(=O)O[C@H]2[C@H]1CC/C(COC(=O)CSCSCC(=O)OC/C1=C/CC[C@@]3(C)O[C@H]3[C@H]3OC(=O)C(=C)[C@@H]3CC1)=C\CC[C@@]1(C)O[C@@H]21	True
COc1ccc2c(c1)c(-c1nc(-c3c[nH]c4ncccc34)cs1)cn2CCCN1CCOCC1	False
Cc1cccc[n+]1C1c2ccccc2-c2ccccc21	False
O=c1nc(-c2ccccc2)c2cc(-c3ccc(C(F)(F)F)nc3)ccc2[nH]1	False
CN(CCCNC(=O)CCOCCOCCOCCNC(=O)Cc1ccc2ccc3cccc4ccc1c2c34)CCCNc1cc(-c2ccc3ccccc3c2)nc2ccccc12	True
C=C(CNCCO)[C@@H]1CC[C@]2(CO)CC[C@]3(C)[C@H](CC[C@@H]4[C@@]5(C)CCC(N)C(C)(C)[C@@H]5CC[C@]43C)[C@@H]12 (stereo partly drawn)	False
Cc1cccc2c1C[C@@]1(C2=O)C(c2ccc(C(C)(C)C)cc2)=NOS1=O (stereo partly drawn)	False
[2H]C([2H])([2H])Oc1ccc(F)cc1/C=C/C(=O)/C=C(O)/C=C/c1cc(F)ccc1OC([2H])([2H])[2H]	False
CCCCCCCC/C=C\CCCCCCCCOc1ccc(CC(=O)NCC[N+]2(C)CCOCC2)cc1	False
Cc1cc(Nc2ccc(C(=O)N3CCCC3)cc2)nc(NCCCNc2ccnc3cc(Cl)ccc23)n1	False
Cc1nc2c(=O)nc3s/c(=C\c4ccco4)c(=O)n3c2nc1C	False
O=S1(=O)C=C(c2ccccc2)C(c2ccccc2)=C1	True
